- Test system: OVCAR-3
- assay-procedure: NCI tumour cell line growth inhibition, 48 h
The source made the active and inactive calls. Cut-off read from the data, not from the text of the source: active = GI50 up to about 1.1 µM and inactive = higher.
For each entry below, report its GI50 value.

Examples with answers:
{"columns": ["molecule", "GI50"],
 "data": [
  ["CCOC(=O)CNC(=O)C(CSCC1C(=O)Nc2ccccc21)NC(=O)CCC(N)C(=O)OCC (stereo unspecified)", "2.01 µM (inactive)"],
  ["O=C1Nc2ccccc2Nc2ccncc21", "> 100 µM (inactive)"],
  ["C/C(=N\\O)c1ccc2ccc3ccccc3c2c1", "34.2 µM (inactive)"],
  ["COc1cccc2cc(C(N)=O)c(=N)oc12", "36.9 µM (inactive)"],
  ["CCCN(CCCC(NC(C)=O)C(=O)NCc1ccccc1)C(=O)N(CCCl)N=O (stereo unspecified)", "20.9 µM (inactive)"]
]}

Items follow; give GI50 for each.
1. C=C1C(NC)CCC23CC24CCC2(C)C(C(C)=O)C(O)CC2(C)C4CCC13 (stereo unspecified)
2. Nc1c(S(=O)(=O)O)cc(Nc2cccc(S(=O)(=O)/C=C/S(=O)(=O)O)c2)c2c1C(=O)c1ccccc1C2=O
3. c1csc(-c2ccc(-c3cccs3)c3nsnc23)c1
4. O=[N+]([O-])c1cc(Cl)cc2c1nc(NCCO)c1ccccc12
5. Clc1ccc2c(Cl)ncnc2c1I
6. COc1ccc(C2c3c(-c4ccccc4)nn(-c4ccccc4)c3Oc3ncn(N)c(=N)c32)cc1OC (stereo unspecified)

output:
1: > 100 µM (inactive); 2: > 100 µM (inactive); 3: 2.04 µM (inactive); 4: 12.1 µM (inactive); 5: > 100 µM (inactive); 6: 1.63 µM (inactive)

====

- Test system: SF-295
- assay-procedure: NCI tumour cell line growth inhibition, 48 h
Activity calls are given as the source filed them. Rule as the data show it: active = GI50 up to about 1.1 µM and inactive = higher.
# output must be one of active, inactive

{"columns": ["compound", "label-value"],
 "data": [
  ["O=C1c2cccc3cccc(c23)C(=O)N1CCCNCCCNCCCCNCCCNCCCN1C(=O)c2cccc3cccc(c23)C1=O", "inactive"]
]}

input: I'd appreciate the recorded outcome for NC(=S)N/N=C1\C(=O)Nc2c(Cl)cc(Cl)cc21 from this test.
output: inactive

input: I'd appreciate the recorded outcome for Cc1cc(N(CCC#N)CCC#N)ccc1/C=C(\NC(=O)/C=C/c1ccccc1)NC(=O)Nc1ccc(Cl)cc1 from this test.
output: inactive

input: I'd appreciate the recorded outcome for O=C1c2ccccc2-[n+]2ccc3c([nH]c4ccccc43)c21 [FASCAPLYSIN CHLORIDE] from this test.
output: active

input: I'd appreciate the recorded outcome for CN(C)CCCN1c2ccc3ccccc3c2Sc2cccc(Cl)c21 from this test.
output: inactive

input: I'd appreciate the recorded outcome for COc1ccc(/C=N/n2c(Cc3ccccc3)n[nH]c2=O)cc1 from this test.
output: inactive

====

- System: SR
- assay-procedure: NCI tumour cell line growth inhibition, 48 h
Activity calls are given as the source filed them. Rule as the data show it: active = GI50 up to about 1.1 µM and inactive = higher.
measurement-label: GI50

{"columns": ["molecule", "GI50"],
 "data": [
  ["C[S+]([O-])c1cc(=O)c2ccccc2s1 (stereo unspecified)", "1.56 µM (inactive)"],
  ["CCN(CC)CCNCc1cc(Cl)cc2c1OCOC2", "> 10 µM (inactive)"],
  ["N#CCCN(CCN(C(=O)Nc1ccccc1)c1ccccc1)C(=O)Nc1ccccc1", "42 µM (inactive)"]
]}

Items follow; give GI50 for each.
1. NC(=O)COc1c(Br)cc(Br)cc1Br
2. Cc1c[nH]c2c1C13CC1CN(C(=O)c1cc4cc(NC(=O)c5cc6ccccc6o5)ccc4[nH]1)C3=CC2=O (stereo unspecified)

output:
["> 100 µM (inactive)", "< 0.001 µM (active)"]

Items follow; give GI50 for each.
1. CC(=O)Nc1ccc(Nc2cc(O)nc(O)n2)cc1
2. Cc1cc(S(=O)(=O)Nc2nc(N)nc(N(C)C)n2)c(SC(C(=O)O)c2ccccc2)cc1Cl (stereo unspecified)

output:
["> 100 µM (inactive)", "> 10 µM (inactive)"]

Items follow; give GI50 for each.
1. N#C/C(=C1C=C(Br)/C(=N\O)C=C\1Cl)c1cccc2ccccc12
2. CCN(CCCl)CCCNc1c2ccccc2nc2ccc(OC)cc12
3. OCc1ccn2c1[C@@H](O)CC2
4. CCOC(=O)NC/C=C/CO

output:
1: 3.11 µM (inactive); 2: 0.0158 µM (active); 3: > 100 µM (inactive); 4: > 100 µM (inactive)

Items follow; give GI50 for each.
1. NC(=S)N/N=C1\C(=O)Nc2c(Cl)cc(Cl)cc21
2. COc1ccc(NC(=O)CC(=O)NN)cc1
3. C/C(=N/N(C=O)C[n+]1ccccc1)C(CN(CC(C)C)CC(C)C)C(=O)Nc1ccc(C)cc1C (stereo unspecified)
4. Nc1nc(Cc2ccccc2)nc(Cc2ccccc2)c1-c1ccccc1
5. COc1ccc(/C=C/c2cc(=O)cc(/C=C/c3ccc(OC)c(O)c3)o2)cc1O

output:
1. 16.3 µM (inactive)
2. > 100 µM (inactive)
3. 84.1 µM (inactive)
4. 20.8 µM (inactive)
5. 1.02 µM (active)

Ref: ChEMBL document CHEMBL1201862
